Listed molecules paired with reported pIC50
system: CEM cells HIV-1 protection, formazan growth assay; assay: NCI AIDS Antiviral Assay; conditions: measured here: growth of uninfected CEM cells
In textbook form, pIC50 equals minus log to base ten of the concentration in mol/L.

Here is how some molecules turned out for pIC50.
[[record]]
molecule_smiles = "N#CCOc1ccc(/C=C/C(=O)c2ccc(Cl)cc2)cc1"
measure_name = "pIC50"
numeric_readout = 4.76

[[record]]
molecule_smiles = "NNC(=S)N/N=C(\\C(=O)Nc1cccc(O)c1)C1C(=O)NC(=S)NC1=O"
measure_name = "pIC50"
numeric_readout = 3.35

[[record]]
molecule_smiles = "C=CCNC(=O)NC1=CSC2=NC(=O)C3(NN12)c1ccccc1-c1ccccc13"
measure_name = "pIC50"
numeric_readout = 4.23

[[record]]
molecule_smiles = "COc1cc2c(cc1OC)C/C(=N\\O)c1cc(OC)c(OC)cc1/C=C\\2"
measure_name = "pIC50"
numeric_readout = 5.76

[[record]]
molecule_smiles = "c1ccc(-c2nc3cc4c(cc3n3cccc23)oc2ccccc24)cc1"
measure_name = "pIC50"
numeric_readout = 4.07


// next item, pIC50 requested
Recall the recorded pIC50 for CN(CCC#N)c1ccc(/C=C(\C#N)c2ccc(Br)cc2)cc1 with CEM cells HIV-1 protection, formazan growth assay and state it.
5.34

Taken from PubChem BioAssay AID179.
